biological target: Androgen receptor (Homo sapiens) (UniProt P10275); conditions: at 10 µM
Sequence (P10275 whole entry): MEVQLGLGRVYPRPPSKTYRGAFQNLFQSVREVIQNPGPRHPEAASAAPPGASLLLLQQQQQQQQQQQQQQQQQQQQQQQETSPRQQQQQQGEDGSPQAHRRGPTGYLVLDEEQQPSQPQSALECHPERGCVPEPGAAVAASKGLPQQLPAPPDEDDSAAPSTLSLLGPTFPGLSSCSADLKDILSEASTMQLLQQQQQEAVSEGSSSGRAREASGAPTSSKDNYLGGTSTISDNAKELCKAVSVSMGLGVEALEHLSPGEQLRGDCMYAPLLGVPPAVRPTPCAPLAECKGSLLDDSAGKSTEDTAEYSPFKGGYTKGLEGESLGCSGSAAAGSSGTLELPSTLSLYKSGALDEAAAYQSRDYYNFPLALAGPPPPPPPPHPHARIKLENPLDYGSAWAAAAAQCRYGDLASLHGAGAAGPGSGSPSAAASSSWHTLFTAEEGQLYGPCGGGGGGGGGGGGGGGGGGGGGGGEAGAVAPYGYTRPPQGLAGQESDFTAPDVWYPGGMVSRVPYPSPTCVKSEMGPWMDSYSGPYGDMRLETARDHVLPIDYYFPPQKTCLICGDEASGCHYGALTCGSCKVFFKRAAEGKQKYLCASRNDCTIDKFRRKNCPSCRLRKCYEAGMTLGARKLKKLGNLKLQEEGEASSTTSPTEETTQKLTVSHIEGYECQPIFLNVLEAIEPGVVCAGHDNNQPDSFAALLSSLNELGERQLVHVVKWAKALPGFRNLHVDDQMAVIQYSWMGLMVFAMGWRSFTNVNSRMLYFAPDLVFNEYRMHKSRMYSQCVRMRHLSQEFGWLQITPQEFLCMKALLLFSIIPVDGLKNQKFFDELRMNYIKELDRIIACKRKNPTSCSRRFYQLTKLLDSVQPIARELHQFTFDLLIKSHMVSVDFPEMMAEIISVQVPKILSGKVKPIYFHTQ
# maps each entry to its inhibition

Observe how each entry below is paired with its result.
In [3]: df
Out[3]:
                               query_smiles      metric    val
0  O=c1cc(N2CCN(c3ccc(Br)cc3)CC2)c2ccc3ccccc3c2o1  inhibition  25.1%
1  Cc1ccc(Cl)cc1N1CCN(c2cc(=O)oc3c2ccc2ccccc23)CC1  inhibition  48.3%
2  COc1ccccc1N1CCN(c2cc(=O)oc3c2ccc2ccccc23)CC1  inhibition  61.2%
3  Cc1ccc(N2CCN(c3cc(=O)oc4c3ccc3ccccc34)CC2)cc1  inhibition  53.3%
4  Cc1cccc(N2CCN(c3cc(=O)oc4c3ccc3ccccc34)CC2)c1  inhibition  45.5%
5  O=c1cc(N2CCN(c3ccccc3C(F)(F)F)CC2)c2ccc3ccccc3c2o1  inhibition  65.4%
6  O=c1cc(N2CCN(c3ccccc3Cl)CC2)c2ccc3ccccc3c2o1  inhibition  51.2%
7  O=c1cc(N2CCN(c3ccc(C(F)(F)F)cc3)CC2)c2ccc3ccccc3c2o1  inhibition  20.7%

Read off the recorded inhibition for O=c1cc(N2CCN(c3cccc(Cl)c3)CC2)c2ccc3ccccc3c2o1 40.1%

Give inhibition for the following compound: O=c1cc(N2CCN(c3ccc(Cl)cc3)CC2)c2ccc3ccccc3c2o1 53.7%

Return value of inhibition for input Cc1ccccc1N1CCN(c2cc(=O)oc3c2ccc2ccccc23)CC1 , no commentary. 53.1%

Hello, please tell me recorded inhibition for this one: O=c1cc(N2CCN(c3ccccc3F)CC2)c2ccc3ccccc3c2o1 52.3%

Input N#Cc1ccc(N2CCN(c3cc(=O)oc4c3ccc3ccccc34)CC2)c(F)c1 , output reported inhibition. 30.2%

Check the records and state inhibition for CCOc1ccccc1N1CCN(c2cc(=O)oc3c2ccc2ccccc23)CC1 58.5%

Please give measured inhibition of the following entry: COc1cccc(N2CCN(c3cc(=O)oc4c3ccc3ccccc34)CC2)c1 41.2%

Supply inhibition value. Item: O=c1cc(N2CCN(c3ccc(F)cc3F)CC2)c2ccc3ccccc3c2o1 45.1%
